test_system: UniProtKB Q9UBN7
Sequence (Q9UBN7 whole entry): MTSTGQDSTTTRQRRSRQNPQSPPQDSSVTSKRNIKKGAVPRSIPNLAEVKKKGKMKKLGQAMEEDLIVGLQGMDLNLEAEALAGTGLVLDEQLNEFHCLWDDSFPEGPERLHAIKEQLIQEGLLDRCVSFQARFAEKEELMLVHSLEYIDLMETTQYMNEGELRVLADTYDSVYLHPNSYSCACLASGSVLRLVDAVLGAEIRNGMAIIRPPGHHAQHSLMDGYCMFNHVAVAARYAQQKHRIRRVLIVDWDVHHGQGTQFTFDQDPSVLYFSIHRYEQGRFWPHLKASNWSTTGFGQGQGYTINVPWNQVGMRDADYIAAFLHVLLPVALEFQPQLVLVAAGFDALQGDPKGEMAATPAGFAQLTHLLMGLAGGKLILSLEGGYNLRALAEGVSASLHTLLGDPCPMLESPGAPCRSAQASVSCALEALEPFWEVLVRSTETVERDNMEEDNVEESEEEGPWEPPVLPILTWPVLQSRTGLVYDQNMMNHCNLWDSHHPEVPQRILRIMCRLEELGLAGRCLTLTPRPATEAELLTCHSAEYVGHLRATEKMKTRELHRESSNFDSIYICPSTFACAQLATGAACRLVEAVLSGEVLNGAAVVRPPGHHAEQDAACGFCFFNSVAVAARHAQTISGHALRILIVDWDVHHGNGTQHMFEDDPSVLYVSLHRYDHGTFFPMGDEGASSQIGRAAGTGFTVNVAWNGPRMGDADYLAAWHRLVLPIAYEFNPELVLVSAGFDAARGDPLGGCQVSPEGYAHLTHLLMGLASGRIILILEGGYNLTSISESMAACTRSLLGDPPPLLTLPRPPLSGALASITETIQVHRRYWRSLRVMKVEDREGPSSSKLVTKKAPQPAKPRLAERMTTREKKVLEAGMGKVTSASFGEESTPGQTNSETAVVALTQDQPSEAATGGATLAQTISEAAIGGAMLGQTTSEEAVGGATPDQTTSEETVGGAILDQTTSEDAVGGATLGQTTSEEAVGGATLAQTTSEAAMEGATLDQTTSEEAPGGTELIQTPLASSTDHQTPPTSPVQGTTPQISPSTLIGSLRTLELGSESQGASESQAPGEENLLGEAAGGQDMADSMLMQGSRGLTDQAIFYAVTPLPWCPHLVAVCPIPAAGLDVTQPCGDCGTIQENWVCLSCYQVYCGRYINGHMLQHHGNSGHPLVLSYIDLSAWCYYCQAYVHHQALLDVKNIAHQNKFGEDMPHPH
assay_notes: Biochemical HDAC6 inhibitory activity assay
measurement_setup: unit inferred; read-out: IC50 against HDAC6 (FIG. 3)
endpoint: pIC50
// scale note: pIC50 = -log10(conc_M); give the bare number

Prompt: What value of pIC50 has been recorded for this entry: C[C@@H]1CN(Cc2ccc(Nc3nccc(-c4ccc(C(=O)NO)cc4)n3)cc2F)CCO1
Completion: 7.91

====

assay_notes: Oral bioavailability and brain/CSF uptake study of compound I-8
Assay type: in vivo, male Swiss albino mice
measurement_setup: male, Swiss albino; G1, intravenous 1 mg/kg, mouse plasma
Procedure: Compound I-8 was evaluated for bioavailability, pharmacokinetics and brain/csf to plasma distribution in mouse plasma following oral and intravenous administration of compound I-8 in male Swiss albino mouse. […] Mouse plasma, CSF and Brain homogenate concentrations were analyzed to quantify compound I-8 using a fit-for purpose LC-MS/MS method with LLOQ of 0.98 ng/mL. The PK parameters were evaluated using Phoenix WinNonlin® Ent-Version 8.3 by non-compartmental analysis.
endpoint: AUC(0-inf) (ng·h/mL)
Record the value in ng·h/mL, omitting the unit from your answer.

Prompt: What value of AUC(0-inf) has been recorded for this entry: CC1CN(Cc2ccc(Nc3nccc(-c4ccc(C(=O)NO)cc4)n3)cc2F)CCO1 (racemic) [Compound I-8]
Completion: 50.8

====

assay_notes: Oral bioavailability and brain/CSF uptake study of compound I-8
Type: in vivo, male Swiss albino mice
measurement_setup: male, Swiss albino, mouse, plasma; G2, oral 5 mg/kg
endpoint: Tmax (h)
Record the value in h, omitting the unit from your answer.

Prompt: What value of Tmax has been recorded for this entry: CC1CN(Cc2ccc(Nc3nccc(-c4ccc(C(=O)NO)cc4)n3)cc2F)CCO1 (racemic)
Completion: 8

====

test_system: UniProtKB Q9UQL6
Sequence (Q9UQL6 whole entry, species assumed): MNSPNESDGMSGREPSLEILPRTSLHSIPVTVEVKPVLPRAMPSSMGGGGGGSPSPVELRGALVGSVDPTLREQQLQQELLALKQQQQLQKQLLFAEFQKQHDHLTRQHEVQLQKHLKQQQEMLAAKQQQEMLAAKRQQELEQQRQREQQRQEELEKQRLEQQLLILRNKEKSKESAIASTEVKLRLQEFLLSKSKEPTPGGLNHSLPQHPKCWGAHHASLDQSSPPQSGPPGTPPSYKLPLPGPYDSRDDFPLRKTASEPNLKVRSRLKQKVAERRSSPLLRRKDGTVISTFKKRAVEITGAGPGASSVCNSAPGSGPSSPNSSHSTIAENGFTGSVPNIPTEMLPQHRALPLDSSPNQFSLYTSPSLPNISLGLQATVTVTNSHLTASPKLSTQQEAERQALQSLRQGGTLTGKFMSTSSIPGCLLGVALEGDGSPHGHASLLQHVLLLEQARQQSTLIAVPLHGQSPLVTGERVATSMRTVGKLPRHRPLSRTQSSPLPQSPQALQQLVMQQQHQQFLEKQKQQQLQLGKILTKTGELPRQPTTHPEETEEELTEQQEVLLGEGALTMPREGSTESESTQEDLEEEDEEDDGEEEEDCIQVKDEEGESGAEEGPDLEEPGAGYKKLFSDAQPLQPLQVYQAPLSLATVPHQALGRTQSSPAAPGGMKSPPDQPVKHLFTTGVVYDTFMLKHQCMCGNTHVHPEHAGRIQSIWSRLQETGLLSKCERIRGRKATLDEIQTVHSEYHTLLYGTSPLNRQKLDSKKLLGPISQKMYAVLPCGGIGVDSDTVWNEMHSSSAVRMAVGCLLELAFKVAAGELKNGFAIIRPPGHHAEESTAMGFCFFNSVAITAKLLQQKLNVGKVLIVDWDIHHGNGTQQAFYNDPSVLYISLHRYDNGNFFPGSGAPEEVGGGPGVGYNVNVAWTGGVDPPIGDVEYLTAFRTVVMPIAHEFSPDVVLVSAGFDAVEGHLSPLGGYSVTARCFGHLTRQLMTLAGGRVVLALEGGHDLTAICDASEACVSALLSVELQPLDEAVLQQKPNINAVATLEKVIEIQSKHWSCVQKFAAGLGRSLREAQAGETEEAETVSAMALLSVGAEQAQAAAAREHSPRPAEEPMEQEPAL
endpoint: IC50 (µM)
Record the value in µM, omitting the unit from your answer.

Prompt: What value of IC50 has been recorded for this entry: CC1CN(Cc2ccc(Nc3nccc(-c4ccc(C(=O)NO)cc4)n3)cc2F)CCO1 (racemic) [Compound I-8]
Completion: 7.77

====

assay_notes: Oral bioavailability and brain/CSF uptake study of compound I-8
Format: in vivo, male Swiss albino mice
measurement_setup: male, Swiss albino; G1, intravenous 1 mg/kg, mouse plasma
endpoint: C0

Prompt: What value of C0 has been recorded for this entry: CC1CN(Cc2ccc(Nc3nccc(-c4ccc(C(=O)NO)cc4)n3)cc2F)CCO1 (racemic) [Compound I-8]
Completion: 27.3 ng/mL

====

assay_notes: Tg2576 study: bioanalysis
Format: in vivo, mice
measurement_setup: male, mouse, plasma, oral; G3 Tg2576 mice, end of experiment; 2 hr post dose; read-out: Plasma Concentrations
endpoint: concentration at 2 h (ng/mL)
Record the value in ng/mL, omitting the unit from your answer.

Prompt: What value of concentration at 2 h has been recorded for this entry: C[C@@H]1CN(Cc2ccc(Nc3nccc(-c4ccc(C(=O)NO)cc4)n3)cc2F)CCO1
Completion: 106

====

assay_notes: Oral bioavailability and brain/CSF uptake study of compound I-8
Assay type: in vivo, male Swiss albino mice
measurement_setup: male, Swiss albino; G1, intravenous 1 mg/kg, mouse plasma
endpoint: AUC(0-t) (ng·h/mL)
Record the value in ng·h/mL, omitting the unit from your answer.

Prompt: What value of AUC(0-t) has been recorded for this entry: CC1CN(Cc2ccc(Nc3nccc(-c4ccc(C(=O)NO)cc4)n3)cc2F)CCO1 (racemic)
Completion: 27.1

Where do these numbers come from? They come from patent US20260109690A1.
